Test: Viability qHTS for spleen associated tyrosine kinase inhibitor (SYKi) naive MV4-11 cells (AID 1963823); further: nearly all actives have a fitted effect of over 40% in size
Settings: MV4-11 AML viability, CellTiter-Glo luminescence, 72 h; series mostly up to 45 µM
Inconclusive results are not listed. Activity calls are given as the source filed them. The call rests on the fitted dose curve; in most records, active means well fitted cell-killing curve with a large enough effect; inconclusive means small, poorly fitted or top-dose-only effect, or effect the other way; inactive means no such curve, though single readings can be large or run the other way.
Result category, one only: true (1) (active), false (0) (inactive)

Look over these answered cases.
>>> qualitative_label("Cn1cc(-c2cnn3c(N)c(Br)c(C4CCCNC4)nc23)cn1 (centres undefined)")
"true (1)"
>>> qualitative_label("NC(=O)c1ncn([C@@H]2O[C@H](CO)[C@@H](O)[C@H]2O)c1O")
"false (0)"
>>> qualitative_label("COc1cc(C(C)C)c2c(c1)S(=O)(=O)N(COc1cc(=O)n3cccc(OCCN4CCCCC4)c3n1)C2=O")
"true (1)"
>>> qualitative_label("C[C@]12CC[C@@H]3c4ccc(O)cc4CC[C@H]3[C@@H]1CC[C@@H]2O")
"true (1)"
>>> qualitative_label("O=C(O)C(S)C(S)C(=O)O (centres undefined)")
"false (0)"

GET /call?item= CC(=O)C=C=C1C(C)(C)CC(O)CC1(C)O[C@@H]1O[C@H](CO[C@H]2OC[C@](O)(CO)[C@H]2O)[C@@H](O)[C@H](O)[C@H]1O (some centres undefined) returns the recorded outcome of this test.
false (0)

Now the same for CCN1CCN(c2ccc(Nc3cc(N(C)C(=O)Nc4c(Cl)c(OC)cc(OC)c4Cl)ncn3)cc2)CC1
true (1)

* * *

Assay: Cellular viability qHTS for adrenocortical cancer (ACC) cell line NCI-H295R (AID 1963990); further: nearly all actives have a fitted effect of over 60% in size; further: potency means the concentration at half of the fitted maximal effect
Conditions: CellTiter-Glo ATP luminescence, 48 h; series mostly up to 46.1 µM
Inconclusive results are not listed. Activity calls are given as the source filed them. Calls follow the shape of the dose curve; as a rule, active = well fitted cell-killing curve with a large enough effect; inconclusive = small, poorly fitted or top-dose-only effect; inactive = flat fitted curve, though single readings scatter.
Measure: Potency

>>> result("Cc1cc(=O)oc2cc(O)ccc12")
"inactive"
>>> result("CNC(=O)c1c(I)c(NC(C)=O)c(I)c(C(=O)O)c1I")
"inactive"
>>> result("O=C(O)P(=O)(O)O")
"inactive"
>>> result("Nc1nc(N)c2nc(-c3ccccc3)c(N)nc2n1")
"4610 nM (active)"
>>> result("CC(C)OC(=O)OCOP(=O)(CO[C@H](C)Cn1cnc2c(N)ncnc21)OCOC(=O)OC(C)C")
"inactive"

# context switch: different molecule, same Potency
Entry under review: O=C(Nc1cc(C(F)(F)F)cc(C(F)(F)F)c1)c1cc(Cl)ccc1O . Reported Potency?
1120 nM (active)

* * *

Assay: Quantitative highthroughput screen to assess conditional lethalithy of SEM cells grown in Human Plasma-Like Medium with dialyzed fetal bovine serum (HPLM+ds) (AID 1963882); further: nearly all actives have a fitted effect of over 35% in size; further: potency means the concentration at half of the fitted maximal effect
Settings: SEM B-ALL cells in HPLM+ds, CellTiter-Glo viability, 48 h; series mostly up to 45.8 µM
Results filed as inconclusive are left out. Activity calls are given as the source filed them. Calls follow the shape of the dose curve; as a rule, active = well fitted cell-killing curve with a large enough effect; inconclusive = small, poorly fitted or top-dose-only effect, or effect the other way; inactive = no such curve, though single readings can be large or run the other way.
Measure: Potency

Worked examples, 6 compounds total:
>>> result("CCc1cccc(CC)c1NC(=O)N1Cc2[nH]nc(NC(=O)c3ccc(N4CCN(C)CC4)cc3)c2C1")
"4180 nM (active)"
>>> result("CCOc1cc(N)c(Cl)cc1C(=O)NCC1CN(Cc2ccc(F)cc2)CCO1 (stereo not given)")
"inactive"
>>> result("Nc1nnc(-c2cccc(Cl)c2Cl)c(N)n1")
"inactive"
>>> result("CS(=O)(=O)c1ccc(C(=O)Nc2ccc(Cl)c(-c3ccccn3)c2)c(Cl)c1")
"inactive"
>>> result("CCNC(=O)Nc1ccc(Oc2ncnc(N)c2C=NOC)cc1Cl")
"1050 nM (active)"
>>> result("Cc1[nH]c(=O)c(C#N)cc1-c1ccncc1")
"inactive"

# context switch: different compound, same Potency
Entry under review: CC(C)NC[C@@H](C(=O)N1CCN(c2ncnc3c2[C@H](C)C[C@H]3O)CC1)c1ccc(Cl)cc1 . Reported Potency?
296 nM (active)
